I'd appreciate it if you could supply protein stability index values for the items below.
B1: TRAF3IP2 (parent)
chain: KQGSMNFRFIPVLFPNAKKEHVPT

variants of: B1; test: protein stability index of a GFP-peptide fusion (GPS, HEK-293T) (PSI 1-6); higher = more stable; conditions: c terminus: a fixed tail appended;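 also: lentivirally expressed fusions sorted by FACS into six bins by GFP to DsRed ratio, PSI derived from sequencing read proportions per bin multiplied by bin number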
Answer with a number only.

Look up protein stability index for this variant: `R8V`
2.02

Look up protein stability index for this variant: `K19Y`
1.99

Look up protein stability index for this variant: `L13Q`
2.02

Look up protein stability index for this variant: `P23C`
1.96

Look up protein stability index for this variant: `T24N`
1.97

Look up protein stability index for this variant: `A17N`
2

Look up protein stability index for this variant: `V22Q`
1.96

Look up protein stability index for this variant: `E20T`
2.05

Look up protein stability index for this variant: `A17R`
2

Look up protein stability index for this variant: `S4T`
2

Look up protein stability index for this variant: `G3N`
2.05

Look up protein stability index for this variant: `I10Q`
1.98

Look up protein stability index for this variant: `M5I`
2.01

Look up protein stability index for this variant: `I10A`
1.98

Where do these numbers come from? They come from the supplement of paper PMC10567573.
